# PROTOCOL TEXT: Water solubility / feasibility of intranasal or intravenous dosing
# TEST CONDITIONS: water
OBSERVED PROPERTY: water solubility (in words)

COMPOUND	water solubility (in words)
COc1ccc(C(=O)OC2=CC[C@H]3[C@H]4Cc5ccc(OC)c6c5[C@@]3(CCN4C)C2O6)cc1 (stereo partly shown) [Compound 4-MeO-Bz-HC]	hydrophobic
COc1ccc2c3c1OC1C(OC(=O)c4ccc(O)cc4)=CC[C@H]4[C@@H](C2)N(C)CC[C@]314 (stereo partly shown) [Compound 4-OH-Bz-HC]	hydrophobic
COc1ccc2c3c1OC1C(OC(=O)COCC(=O)O)=CC[C@H]4[C@@H](C2)N(C)CC[C@]314 (stereo partly shown) [Diglycolate-HC, reference compound]	water soluble
COc1ccc2c3c1OC1C(OC(=O)CCCCC(=O)O)=CC[C@H]4[C@@H](C2)N(C)CC[C@]314 (stereo partly shown) [Adipate-HC, reference compound]	water soluble
COc1ccc2c3c1OC1C(OC(=O)c4cccnc4)=CCC4C(C2)N(C)CCC314 (stereo not shown) [Nicotinate-HC, nicotinate-hydrocodone]	hydrophobic

Field: next compound
For this compound ( COc1ccc2c3c1OC1C(OC(=O)c4ccc5c(c4)OCO5)=CC[C@H]4[C@@H](C2)N(C)CC[C@]314 (stereo partly shown) [Piperonylate-HC] ), measured water solubility (in words) is hydrophobic

====

# PROTOCOL TEXT: Example 23: Bz-HC.HCl API single dose intranasal human PK study vs HB API
# Assay type: in vivo, humans
# TEST CONDITIONS: both sexes, human, plasma, inhaled or intranasal, 13.34 mg, 13.34 mg Bz-HC•HCl API, read-out: AUC0-0.5 h of Bz-HC, Mean (SD)
Structures can show the parent of a compound that is named as a salt.
OBSERVED PROPERTY: AUC(0-t) (ng·h/mL)
Only the number, expressed in ng·h/mL, is required.

For this compound ( COc1ccc2c3c1O[C@H]1C(OC(=O)c4ccccc4)=CC[C@H]4[C@@H](C2)N(C)CC[C@]314 [Bz-HC•HCl, benzoate-hydrocodone hydrochloride] ), measured AUC(0-t) is 0.7

====

half-life for assorted compounds
# PROTOCOL TEXT: Example 22: intranasal crushed / oral intact tablets human PK study vs HB/APAP
# TEST CONDITIONS: human, plasma, inhaled or intranasal
Structures can show the parent of a compound that is named as a salt.
Write down the value, and be sure its unit follows.

> print(dat)
                                   compound  observed.property  measured.value
1  COc1ccc2c3c1O[C@H]1C(OC(=O)c4ccccc4)=CC[C@H]4[C@@H](C2)N(C)CC[C@]314 [Bz-HC•HCl, benzoate-hydrocodone hydrochloride]          half-life        66.6 min

For this compound ( COc1ccc2c3c1OC1C(OC(=O)c4ccccc4)=CCC4C(C2)N(C)CCC314 (centres unmarked) [Bz-HC, benzoate-hydrocodone] ), measured half-life is 66.6 min

====

# PROTOCOL TEXT: Example 23: Bz-HC.HCl API single dose intranasal human PK study vs HB API
# Format: in vivo, humans
# TEST CONDITIONS: both sexes, human, plasma, inhaled or intranasal, 13.34 mg, 13.34 mg Bz-HC•HCl API, n = 23, read-out: AUC0-3 h of Bz-HC, Mean (SD)
Structures can show the parent of a compound that is named as a salt.
OBSERVED PROPERTY: AUC(0-t) (ng·h/mL)
Only the number, expressed in ng·h/mL, is required.

For this compound ( COc1ccc2c3c1O[C@H]1C(OC(=O)c4ccccc4)=CC[C@H]4[C@@H](C2)N(C)CC[C@]314 [Bz-HC•HCl, benzoate-hydrocodone hydrochloride] ), measured AUC(0-t) is 2.79
